- measurement-description: self-splicing fitness, log relative to wild type (ln ratio); higher = more splicing; Tetrahymena group I intron in knt gene, E. coli kanamycin selection, DiMSum; sequences stand for … in CUCUCU…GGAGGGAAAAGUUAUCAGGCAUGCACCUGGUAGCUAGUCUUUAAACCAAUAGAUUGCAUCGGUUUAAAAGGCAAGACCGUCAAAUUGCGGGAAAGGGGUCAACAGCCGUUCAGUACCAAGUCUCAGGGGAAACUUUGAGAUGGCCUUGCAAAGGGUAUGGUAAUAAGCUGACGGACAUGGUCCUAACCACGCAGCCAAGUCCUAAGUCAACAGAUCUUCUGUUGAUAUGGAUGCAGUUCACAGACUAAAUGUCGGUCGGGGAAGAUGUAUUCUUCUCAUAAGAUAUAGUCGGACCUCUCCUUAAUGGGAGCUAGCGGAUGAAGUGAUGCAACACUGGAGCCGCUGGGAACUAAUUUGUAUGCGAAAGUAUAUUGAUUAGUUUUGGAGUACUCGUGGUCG;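 note: selection with 25 µg/mL kanamycin versus none on LB agar overnight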
- condition-label: 37 °C
Threshold check on self-splicing fitness (ln): at or above -1 gives yes (1), strictly below gives no (0).

// query Check the entry CACGAGCAAUAUUACGUUCU : does self-splicing fitness (ln) equal or exceed -1?
// result no (0)

// query Check the entry UGGAAGCAAUAUUACGAGGA : does self-splicing fitness (ln) equal or exceed -1?
// result no (0)

// query Check the entry ACCAAGCAAUAUUACGCUUG : does self-splicing fitness (ln) equal or exceed -1?
// result no (0)

// query Check the entry AGGAAGCAAUAUUACGGGCC : does self-splicing fitness (ln) equal or exceed -1?
// result yes (1)

// query Check the entry AUGAAGCAAUAUUACGUGGG : does self-splicing fitness (ln) equal or exceed -1?
// result no (0)

// query Check the entry GUAGAGCAAUAUUACGUCGA : does self-splicing fitness (ln) equal or exceed -1?
// result yes (1)

// query Check the entry CGGCAGCAAUAUUACGUCCG : does self-splicing fitness (ln) equal or exceed -1?
// result no (0)

// query Check the entry AGUGAGCAAUAUUACGGGUG : does self-splicing fitness (ln) equal or exceed -1?
// result no (0)

// query Check the entry ACAAAGCAAUAUUACGCAAC : does self-splicing fitness (ln) equal or exceed -1?
// result yes (1)

// query Check the entry UCCAAGCAAUAUUACGGGUC : does self-splicing fitness (ln) equal or exceed -1?
// result no (0)

// query Check the entry CUCUAGCAAUAUUACGCUCA : does self-splicing fitness (ln) equal or exceed -1?
// result no (0)

// query Check the entry UCACAGCAAUAUUACGUAGC : does self-splicing fitness (ln) equal or exceed -1?
// result no (0)

// query Check the entry GCUCAGCAAUAUUACGUGAC : does self-splicing fitness (ln) equal or exceed -1?
// result no (0)

// query Check the entry CUUCAGCAAUAUUACGCGUC : does self-splicing fitness (ln) equal or exceed -1?
// result yes (1)

// query Check the entry GCUCAGCAAUAUUACGUGCG : does self-splicing fitness (ln) equal or exceed -1?
// result yes (1)

// query Check the entry UAGCAGCAAUAUUACGCGGC : does self-splicing fitness (ln) equal or exceed -1?
// result no (0)

// query Check the entry GCGAAGCAAUAUUACGUCAA : does self-splicing fitness (ln) equal or exceed -1?
// result no (0)

// query Check the entry AACCAGCAAUAUUACGCGGC : does self-splicing fitness (ln) equal or exceed -1?
// result no (0)

// query Check the entry UUUUAGCAAUAUUACGAAAG : does self-splicing fitness (ln) equal or exceed -1?
// result yes (1)

// query Check the entry GUGGAGCAAUAUUACGGUGC : does self-splicing fitness (ln) equal or exceed -1?
// result no (0)

// query Check the entry UCUUAGCAAUAUUACGGGUG : does self-splicing fitness (ln) equal or exceed -1?
// result yes (1)

// query Check the entry CUCCAGCAAUAUUACGUAUC : does self-splicing fitness (ln) equal or exceed -1?
// result no (0)

// query Check the entry GCGUAGCAAUAUUACGUGAA : does self-splicing fitness (ln) equal or exceed -1?
// result no (0)

// query Check the entry UCCGAGCAAUAUUACGACGU : does self-splicing fitness (ln) equal or exceed -1?
// result yes (1)

// query Check the entry ACUAAGCAAUAUUACGUGGC : does self-splicing fitness (ln) equal or exceed -1?
// result no (0)

// query Check the entry UGGAAGCAAUAUUACGAGGG : does self-splicing fitness (ln) equal or exceed -1?
// result no (0)

// query Check the entry CUAUAGCAAUAUUACGGGGG : does self-splicing fitness (ln) equal or exceed -1?
// result no (0)

// query Check the entry GCGGAGCAAUAUUACGAAGU : does self-splicing fitness (ln) equal or exceed -1?
// result no (0)

// query Check the entry CCAGAGCAAUAUUACGCAUU : does self-splicing fitness (ln) equal or exceed -1?
// result no (0)

// query Check the entry AAAUAGCAAUAUUACGUUUA : does self-splicing fitness (ln) equal or exceed -1?
// result no (0)

// query Check the entry GGCUAGCAAUAUUACGGAUC : does self-splicing fitness (ln) equal or exceed -1?
// result yes (1)

// query Check the entry CACAAGCAAUAUUACGACUG : does self-splicing fitness (ln) equal or exceed -1?
// result yes (1)

// query Check the entry UGCGAGCAAUAUUACGAGGU : does self-splicing fitness (ln) equal or exceed -1?
// result no (0)

// query Check the entry ACGCAGCAAUAUUACGACCA : does self-splicing fitness (ln) equal or exceed -1?
// result yes (1)
